Biological target: Csy3 of Z. mobilis Type I-F CRISPR/Cas complex
Test: SPEC system (split protease-E. coli ClpXP) in E. coli cells
Conditions: parent: 100; read off a plot
result-type: percent of parent (%)

*Q* Would you kindly share the measured percent of parent for Cas2-3 of Z. mobilis Type I-F CRISPR/Cas complex D608N ?
*A* 110

*Q* Reported percent of parent, substance Cas2-3 of Z. mobilis Type I-F CRISPR/Cas complex D124A : ____
*A* 110

*Q* Which measured percent of parent value corresponds to Cas2-3 of Z. mobilis Type I-F CRISPR/Cas complex S639A; T641A ?
*A* 110

*Q* Suppose we examine the substance Cas2-3 of Z. mobilis Type I-F CRISPR/Cas complex K127A ; what percent of parent value has been reported?
*A* 110

*Q* What percent of parent value was documented for this substance, Cas2-3 of Z. mobilis Type I-F CRISPR/Cas complex H123A ?
*A* 110

*Q* I have this substance here, Cas2-3 of Z. mobilis Type I-F CRISPR/Cas complex K458N , and I need its recorded percent of parent.
*A* 120
